- Target desc: T1, Fc-labeled CD70 antigen
- T1 construct: soluble antigen used at 1:100 to stain CAR-T cells; also called detected with the secondary antibody PE-Fc (axis label PE-Fc)
- T1 sequence (P32970 whole entry, species assumed, looked up): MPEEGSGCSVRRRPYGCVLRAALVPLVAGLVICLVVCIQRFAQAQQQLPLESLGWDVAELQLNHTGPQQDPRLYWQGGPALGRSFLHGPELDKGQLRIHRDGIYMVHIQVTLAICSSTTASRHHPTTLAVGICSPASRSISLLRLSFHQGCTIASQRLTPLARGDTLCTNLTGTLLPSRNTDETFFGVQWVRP
- Assay: flow cytometry: CAR-transduced T cells stained with Fc-labeled CD70 antigen (1:100) and secondary antibody PE-Fc; NT control 0.79
Parameter: CD70 CAR+ (positive rate of the cells) (%)

INSERT INTO assay_data (binder, parameter, quantitative_result) VALUES
  ('2A5-BBz (other, also called CD70-2A5-BBz) chimeric antigen receptor chain: EVQLVESGGGLVQAGGSLRLSCAASGSIFSINAMGWYRQAPGKQRELVAAITSGGSTNYADSVKGRFTISRDNAKNTVYLQMNSLKPEDTAVYYCNAGAGRAFPGDYWGQGTQVTVSSTTTPAPRPPTPAPTIASQPLSLRPEACRPAAGGAVHTRGLDFACDIYIWAPLAGTCGVLLLSLVITLYCRFSVVKRGRKKLLYIFKQPFMRPVQTTQEEDGCSCRFPEEEEGGCELRVKFSRSADAPAYQQGQNQLYNELNLGRREEYDVLDKRRGRDPEMGGKPRRKNPQEGLYNELQKDKMAEAYSEIGMKGERRRGKGHDGLYQGLSTATKDTYDALHMQALPPR', 'CD70 CAR+ (positive rate of the cells)', 82.4);
